target.of.assay: Protein kinase C beta type (Homo sapiens);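 further: mean inhibition value, enzyme form tested was the PKC-beta1 splice variant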
experimental.parameters: at 1 µM
Description: GSK_PKIS: PKC-beta1 (splice variant) mean inhibition at 1 uM [Nanosyn]

{"compound.structure": "COc1cc2c(cc1Nc1nc(Nc3ccsc3C(N)=O)c3cc[nH]c3n1)N(C(=O)CN(C)C)CCC2(C)C", "inhibition / %": 3.73}
{"compound.structure": "CC(=O)NCc1cccc(C#Cc2cncnc2Nc2ccc(OCc3cccc(F)c3)c(Cl)c2)c1", "inhibition / %": 3.27}
{"compound.structure": "c1ccc(COc2ccc(Nc3ncnc4ccc(-c5ccco5)cc34)cc2)cc1", "inhibition / %": -0.3}
{"compound.structure": "COC(=O)c1sc(-n2cnc3cc(OC)c(OC)cc32)cc1OCc1ccccc1C(F)(F)F", "inhibition / %": 0.17}
{"compound.structure": "CN1CCC(n2cnc(-c3ccc(F)cc3)c2-c2ccnc(N)n2)CC1", "inhibition / %": 7.02}
{"compound.structure": "O=S(=O)(CCNCc1ccc(-c2ccc3ncnc(Nc4ccc(OCc5cccc(F)c5)c(Cl)c4)c3c2)o1)c1ccccc1", "inhibition / %": 2.13}
{"compound.structure": "CCc1nn2ncccc2c1-c1ccnc(NC2CC2)n1", "inhibition / %": 2.65}
{"compound.structure": "COC(=O)Nc1nc2ccc(S(=O)(=O)c3ccc(NC(=O)Nc4cc(C(F)(F)F)ccc4F)cc3)cc2[nH]1", "inhibition / %": 0.32}
{"compound.structure": "COc1cccc(-n2ncc3c(N/N=C/c4ccc(F)cc4)ncnc32)c1", "inhibition / %": 0.97}

###

target.of.assay: Homeodomain-interacting protein kinase 1 (Homo sapiens);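 further: values are mean percent inhibition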
experimental.parameters: at 1 µM
Property: inhibition; scope: individual compounds
measure: inhibition (%)

{"compound.structure": "COc1ccc(CNC(=O)c2ccc(-c3cc(-c4nnc(C)o4)ccc3C)cc2)cc1", "measure.unit": "%", "data.value": 5.55}
{"compound.structure": "c1ccc(-c2nc3n(c2-c2ccc4c(c2)OCO4)CCC3)nc1", "measure.unit": "%", "data.value": 0.44}
{"compound.structure": "CC(C)COC(=O)c1ccc2c(c1)/C(=C/Nc1ccc(S(N)(=O)=O)cc1)C(=O)N2", "measure.unit": "%", "data.value": 16.8}
{"compound.structure": "CS(=O)(=O)CCNCc1ccc(-c2ccc3ncnc(Nc4ccc(OCc5ccccc5)c(C(F)(F)F)c4)c3c2)o1", "measure.unit": "%", "data.value": -0.23}
{"compound.structure": "CNC(=O)c1cncc(/C=C/c2ccccc2Cl)c1", "measure.unit": "%", "data.value": 2.44}
{"compound.structure": "COc1cc(N2CCN(C(C)C)CC2)ccc1Nc1nc(Nc2ccc(F)cc2C(N)=O)c2cc[nH]c2n1", "measure.unit": "%", "data.value": 73.7}
{"compound.structure": "CCCN(CCS(C)(=O)=O)Cc1ccc(-c2ccc3ncnc(Nc4ccc(OCc5cccc(F)c5)c(Cl)c4)c3c2)o1", "measure.unit": "%", "data.value": 11.6}

###

target.of.assay: Tyrosine-protein kinase Fyn (Homo sapiens) (UniProt P06241)
Sequence (P06241 2-537 limits assumed): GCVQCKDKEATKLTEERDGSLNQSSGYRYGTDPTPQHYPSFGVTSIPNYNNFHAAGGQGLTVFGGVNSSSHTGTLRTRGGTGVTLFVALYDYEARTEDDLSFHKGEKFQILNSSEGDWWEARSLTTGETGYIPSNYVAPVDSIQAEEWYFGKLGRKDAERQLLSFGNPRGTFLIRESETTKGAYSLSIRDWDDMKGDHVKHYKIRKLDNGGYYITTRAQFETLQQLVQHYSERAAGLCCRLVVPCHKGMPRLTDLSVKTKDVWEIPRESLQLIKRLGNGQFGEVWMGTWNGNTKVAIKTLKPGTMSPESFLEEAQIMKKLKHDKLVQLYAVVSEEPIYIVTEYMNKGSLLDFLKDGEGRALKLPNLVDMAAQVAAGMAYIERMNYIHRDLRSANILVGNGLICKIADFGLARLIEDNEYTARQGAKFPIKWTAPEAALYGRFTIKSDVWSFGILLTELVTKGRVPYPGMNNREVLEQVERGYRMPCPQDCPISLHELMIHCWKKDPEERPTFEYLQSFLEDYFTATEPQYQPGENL
experimental.parameters: at 0.1 µM
Description: GSK_PKIS: FYN mean inhibition at 0.1 uM [Nanosyn]
Decide using inhibition: a value greater than or equal to 1% is YES, a smaller one is NO.

{"compound.structure": "NS(=O)(=O)c1ccc(Nc2ncc(-c3ccccc3)o2)cc1", "target.of.assay": "Tyrosine-protein kinase Fyn (Homo sapiens) (UniProt P06241)", "qualitative.label": "YES"}
{"compound.structure": "c1ccc(COc2ccc(Nc3ncnc4ccc(-c5ccco5)cc34)cc2)cc1", "target.of.assay": "Tyrosine-protein kinase Fyn (Homo sapiens) (UniProt P06241)", "qualitative.label": "NO"}
{"compound.structure": "O=C(Nc1n[nH]c2cc(-c3ccc(F)cc3)ccc12)C1CC1", "target.of.assay": "Tyrosine-protein kinase Fyn (Homo sapiens) (UniProt P06241)", "qualitative.label": "YES"}
{"compound.structure": "CCOc1ccc2c(-c3ccnc(Nc4cccc(C(F)(F)F)c4)n3)cnn2n1", "target.of.assay": "Tyrosine-protein kinase Fyn (Homo sapiens) (UniProt P06241)", "qualitative.label": "YES"}
{"compound.structure": "COc1cc(N2CCN(C(C)C)CC2)ccc1Nc1nc(Nc2ccc(F)cc2C(N)=O)c2cc[nH]c2n1", "target.of.assay": "Tyrosine-protein kinase Fyn (Homo sapiens) (UniProt P06241)", "qualitative.label": "YES"}
{"compound.structure": "CS(=O)(=O)CCNCc1ccc(-c2ccc3ncnc(Nc4ccc(OCc5ccccc5)c(C(F)(F)F)c4)c3c2)o1", "target.of.assay": "Tyrosine-protein kinase Fyn (Homo sapiens) (UniProt P06241)", "qualitative.label": "YES"}
{"compound.structure": "CCn1cc(-c2ccnc3[nH]ccc23)c(-c2cccc(NC(=O)Nc3ccc(OCc4ccccc4)cc3)c2)n1", "target.of.assay": "Tyrosine-protein kinase Fyn (Homo sapiens) (UniProt P06241)", "qualitative.label": "NO"}
{"compound.structure": "CC(=O)Nc1cccc(C#Cc2cncnc2Nc2ccc(OCc3cccc(F)c3)c(Cl)c2)c1", "target.of.assay": "Tyrosine-protein kinase Fyn (Homo sapiens) (UniProt P06241)", "qualitative.label": "NO"}
{"compound.structure": "COc1cc(Nc2nccc(Nc3ccc4c(C)n[nH]c4c3)n2)cc(OC)c1OC", "target.of.assay": "Tyrosine-protein kinase Fyn (Homo sapiens) (UniProt P06241)", "qualitative.label": "YES"}
{"compound.structure": "N#Cc1c(NC(=O)CN2CCOCC2)sc2c1CCCC2", "target.of.assay": "Tyrosine-protein kinase Fyn (Homo sapiens) (UniProt P06241)", "qualitative.label": "NO"}

###

target.of.assay: Interleukin-1 receptor-associated kinase 4 (Homo sapiens) (UniProt Q9NWZ3);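 further: mean inhibition values, from the GSK PKIS dataset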
Sequence (Q9NWZ3 whole entry): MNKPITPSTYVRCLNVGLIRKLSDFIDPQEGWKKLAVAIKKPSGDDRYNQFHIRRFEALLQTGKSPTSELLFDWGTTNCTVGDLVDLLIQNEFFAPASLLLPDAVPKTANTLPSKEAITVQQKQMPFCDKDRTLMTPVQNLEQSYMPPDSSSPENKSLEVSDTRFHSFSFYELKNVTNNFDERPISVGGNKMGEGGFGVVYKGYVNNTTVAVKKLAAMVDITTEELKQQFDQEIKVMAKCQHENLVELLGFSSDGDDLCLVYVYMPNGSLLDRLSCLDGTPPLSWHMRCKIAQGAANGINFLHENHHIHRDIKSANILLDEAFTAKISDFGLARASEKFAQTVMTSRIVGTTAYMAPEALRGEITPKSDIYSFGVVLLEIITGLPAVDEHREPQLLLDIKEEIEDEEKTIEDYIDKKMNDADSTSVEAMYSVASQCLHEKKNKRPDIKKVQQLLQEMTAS
experimental.parameters: at 1 µM
measure: inhibition (%)

{"compound.structure": "CCc1nn2ncccc2c1-c1ccnc(NC2CC2)n1", "measure": "inhibition", "data.value": 1.5}
{"compound.structure": "NS(=O)(=O)c1ccc(N/N=C2\\C(=O)Nc3ccc4ncccc4c32)cc1", "measure": "inhibition", "data.value": 2.77}
{"compound.structure": "CC(C)(CO)CNC(=O)c1ccc2c(c1)/C(=N/Nc1ccc(S(N)(=O)=O)cc1)C(=O)N2", "measure": "inhibition", "data.value": -0.85}
{"compound.structure": "Nc1nc(-c2ccc(F)cc2)c(-c2ccc3ncccc3n2)s1", "measure": "inhibition", "data.value": 2.12}
{"compound.structure": "c1cc(-c2cnn3nc(N4CCOCC4)ccc23)nc(NC2CC2)n1", "measure": "inhibition", "data.value": 4.62}
{"compound.structure": "Cc1cccc2c1NC(=O)/C2=N\\Nc1ccc(S(N)(=O)=O)cc1", "measure": "inhibition", "data.value": 1.25}
{"compound.structure": "COc1cccc(-c2c[nH]c3c(N/N=C/c4ccncc4)ncnc23)c1", "measure": "inhibition", "data.value": 5.06}
{"compound.structure": "CCCN(CCS(C)(=O)=O)Cc1ccc(-c2ccc3ncnc(Nc4ccc(OCc5cccc(F)c5)c(Cl)c4)c3c2)o1", "measure": "inhibition", "data.value": 0.98}
{"compound.structure": "COc1ccc2c(-c3ccnc(Nc4cccc(OC(F)(F)F)c4)n3)cnn2n1", "measure": "inhibition", "data.value": 2.91}
{"compound.structure": "COc1cc2c(cc1Nc1nc(Nc3ccsc3C(N)=O)c3cc[nH]c3n1)N(C(=O)CN(C)C)CCC2(C)C", "measure": "inhibition", "data.value": 2.28}

###

target.of.assay: Tyrosine-protein kinase ITK/TSK (Homo sapiens) (UniProt Q08881);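 further: values are mean percent inhibition of ITK from the GSK PKIS screen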
Sequence (Q08881 whole entry): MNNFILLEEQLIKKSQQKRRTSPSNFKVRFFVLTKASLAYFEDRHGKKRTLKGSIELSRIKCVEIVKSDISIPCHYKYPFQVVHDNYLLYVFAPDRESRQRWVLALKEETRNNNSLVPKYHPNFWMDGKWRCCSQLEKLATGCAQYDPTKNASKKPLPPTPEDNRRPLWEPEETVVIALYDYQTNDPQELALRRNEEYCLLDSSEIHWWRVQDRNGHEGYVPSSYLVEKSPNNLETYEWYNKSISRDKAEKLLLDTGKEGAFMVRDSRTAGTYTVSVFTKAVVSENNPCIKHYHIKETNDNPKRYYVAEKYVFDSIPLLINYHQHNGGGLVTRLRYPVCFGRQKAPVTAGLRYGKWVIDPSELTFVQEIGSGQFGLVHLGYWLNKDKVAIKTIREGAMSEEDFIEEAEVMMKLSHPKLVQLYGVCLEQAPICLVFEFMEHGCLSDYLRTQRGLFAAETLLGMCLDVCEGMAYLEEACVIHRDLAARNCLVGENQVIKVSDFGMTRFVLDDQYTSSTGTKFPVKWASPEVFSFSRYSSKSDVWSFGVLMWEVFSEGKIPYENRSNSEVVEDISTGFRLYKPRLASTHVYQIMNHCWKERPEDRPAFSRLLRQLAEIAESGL
experimental.parameters: at 1 µM
The following molecules are shown together with reported inhibition values.

{"compound.structure": "N#Cc1c(NC(=O)CN2CCOCC2)sc2c1CCCC2", "inhibition": "3.52%"}
{"compound.structure": "CC(C)COC(=O)c1ccc2c(c1)/C(=C/Nc1ccc(S(N)(=O)=O)cc1)C(=O)N2", "inhibition": "5.29%"}
{"compound.structure": "N#Cc1c(NC(=O)c2ccc(F)cc2)sc2c1CCCC2", "inhibition": "0.63%"}
{"compound.structure": "CN(C)CCOc1ccc(-c2nc(-c3ccncc3)c(-c3ccc4c(c3)CC/C4=N\\O)[nH]2)cc1", "inhibition": "1.79%"}
{"compound.structure": "CC(C)(CO)CNC(=O)c1ccc2c(c1)/C(=N/Nc1ccc(S(N)(=O)=O)cc1)C(=O)N2", "inhibition": "1.2%"}
{"compound.structure": "Cc1ccc2c(-c3ccnc(Nc4ccccc4)n3)c(-c3ccc(F)cc3)nn2n1", "inhibition": "2.3%"}
{"compound.structure": "CCn1c(-c2nonc2N)nc2cnc(Oc3cccc(NC(=O)c4ccc(N(C)C)cc4)c3)cc21", "inhibition": "0.86%"}
{"compound.structure": "CCN(CC)S(=O)(=O)c1ccc(OC)c(Nc2ncc(-c3ccccc3)o2)c1", "inhibition": "2.62%"}
{"compound.structure": "CCNC(=O)O[C@H]1CN[C@H](C#Cc2cc3ncnc(Nc4ccc(OCc5cccc(F)c5)c(Cl)c4)c3s2)C1", "inhibition": "1.96%"}
